System: A-431
experimental details: Cytotoxicity against human A431 cells
Assay type: functional
study conditions: read-out: ED50 (the source's name)
measurement kind: EC50 (µg/mL)
Answers are plain numbers, in µg/mL.

The following compounds have reported results that may help.
[
  {
    "compound": "CC(=O)O[C@H]1C(=O)[C@]2(C)[C@@H](OC(=O)CCC(=O)O)C[C@H]3OC[C@@]3(OC(C)=O)[C@H]2[C@H](OCc2ccccc2)[C@]2(O)C[C@H](OC(=O)[C@H](OC(=O)CCC(=O)Oc3c(C)c(C)c4c(c3C)OC(C)(CCC[C@@H](C)CCC[C@@H](C)CCCC(C)C)CC4)[C@@H](NCc3ccccc3)c3ccccc3)C(C)=C1C2(C)C (some centres undefined)",
    "EC50 [µg/mL]": 0.1
  },
  {
    "compound": "COc1cc(/C=C/C(=O)CC(=O)/C=C/c2ccc(O)c(OC)c2)ccc1O",
    "EC50 [µg/mL]": 0.75
  },
  {
    "compound": "COc1cc(/C=C/C(=O)CC(=O)/C=C/c2ccc(OC(=O)CCC(=O)O[C@@H](C(=O)O[C@H]3C[C@@]4(O)[C@@H](OCc5ccccc5)[C@@H]5[C@]6(OC(C)=O)CO[C@@H]6C[C@H](O)[C@@]5(C)C(=O)[C@H](OC(C)=O)C(=C3C)C4(C)C)[C@@H](NCc3ccccc3)c3ccccc3)c(OC)c2)ccc1O",
    "EC50 [µg/mL]": 0.03
  }
]

Next:
Q) EC50 for `CC(=O)O[C@H]1C(=O)[C@@]2(C)[C@H]([C@H](OC(=O)c3ccccc3)[C@]3(O)C[C@H](OC(=O)[C@H](O)[C@@H](NC(=O)c4ccccc4)c4ccccc4)C(C)=C1C3(C)C)[C@]1(OC(C)=O)CO[C@@H]1C[C@@H]2O` ?
A) 0.01
